src = PubChem BioAssay AID720700

- targetOrSystem: 1-phosphatidylinositol 4,5-bisphosphate phosphodiesterase gamma-1 (Homo sapiens) (UniProt P19174)
- Sequence (P19174 whole entry, looked up): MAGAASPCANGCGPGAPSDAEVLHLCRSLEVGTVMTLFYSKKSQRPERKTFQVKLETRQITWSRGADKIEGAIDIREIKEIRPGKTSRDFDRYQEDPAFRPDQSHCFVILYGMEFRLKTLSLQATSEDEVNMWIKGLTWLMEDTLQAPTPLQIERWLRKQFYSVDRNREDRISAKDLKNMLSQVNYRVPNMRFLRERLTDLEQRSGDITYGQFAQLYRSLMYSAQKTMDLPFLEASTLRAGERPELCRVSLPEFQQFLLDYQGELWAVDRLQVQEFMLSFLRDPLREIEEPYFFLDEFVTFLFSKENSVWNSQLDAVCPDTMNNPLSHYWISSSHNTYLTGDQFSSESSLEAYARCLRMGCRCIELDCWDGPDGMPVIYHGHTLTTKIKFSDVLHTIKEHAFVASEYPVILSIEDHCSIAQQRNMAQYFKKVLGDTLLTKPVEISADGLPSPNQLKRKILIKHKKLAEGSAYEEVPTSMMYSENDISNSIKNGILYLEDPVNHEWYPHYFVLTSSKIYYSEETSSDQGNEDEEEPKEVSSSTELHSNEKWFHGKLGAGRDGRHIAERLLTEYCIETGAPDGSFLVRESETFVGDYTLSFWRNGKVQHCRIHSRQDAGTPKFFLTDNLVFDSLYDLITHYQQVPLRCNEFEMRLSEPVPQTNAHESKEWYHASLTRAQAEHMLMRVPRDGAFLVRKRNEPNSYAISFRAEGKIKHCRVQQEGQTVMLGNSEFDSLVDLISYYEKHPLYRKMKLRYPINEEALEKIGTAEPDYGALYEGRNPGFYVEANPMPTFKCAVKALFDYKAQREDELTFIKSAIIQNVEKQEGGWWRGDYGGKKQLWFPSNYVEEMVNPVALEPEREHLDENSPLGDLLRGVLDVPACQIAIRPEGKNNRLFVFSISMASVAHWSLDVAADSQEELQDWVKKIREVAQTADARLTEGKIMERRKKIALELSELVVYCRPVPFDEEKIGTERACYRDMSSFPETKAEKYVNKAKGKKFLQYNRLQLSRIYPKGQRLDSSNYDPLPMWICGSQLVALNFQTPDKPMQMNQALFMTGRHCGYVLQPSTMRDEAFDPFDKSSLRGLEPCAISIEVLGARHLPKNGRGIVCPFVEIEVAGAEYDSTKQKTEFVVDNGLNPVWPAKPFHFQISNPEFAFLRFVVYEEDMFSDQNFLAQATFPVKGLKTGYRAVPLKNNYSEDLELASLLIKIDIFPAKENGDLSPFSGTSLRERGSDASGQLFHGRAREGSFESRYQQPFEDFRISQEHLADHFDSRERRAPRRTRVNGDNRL
- methodDescription: PLC-gamma1 enzyme inhibitors, primary screen, biochemical, fluorescence, purified enzyme (AID 720700)
- particulars: purified PLC-gamma1, fluorogenic substrate, at 12.2 µM, hits give high values
The whole screen tested about 370,000 compounds, of which about 3,100 (0.84%) were called active. Only a selection was taken, and actives are over-represented in it overall.
measuredQuantity: inhibition (%)

> print(dat)
                                   compound  measuredquantity  reportedvalue
1  CCOC(=O)N1CCN(C(=O)C[C@@H]2C(=O)N(CCc3ccc(Cl)cc3)C3=CCCC[C@]32C(=O)OCC)CC1        inhibition           2.91
2  COc1ccccc1C(=O)N/C(=C/c1ccc2c(c1)OCO2)C(=O)Nc1cccc(C(=O)O)c1        inhibition          -3.19
3  COc1ccccc1C(=O)Nc1ccc(OCC(=O)N2CCCCC2)cc1        inhibition           3.96
4  COc1cccc(CNC(=O)C2CCCN(c3nc4ccccc4o3)C2)c1OC (stereo not given)        inhibition           0.94
5   COc1ccccc1C(=O)Nc1cccc(C(=O)N2CCOCC2)c1        inhibition           12.6

---

- targetOrSystem: 1-phosphatidylinositol 4,5-bisphosphate phosphodiesterase gamma-1 (Homo sapiens) (UniProt P19174)
- methodDescription: PLC-gamma1 enzyme inhibitors, primary screen, biochemical, fluorescence, purified enzyme (AID 720700)
- particulars: purified PLC-gamma1, fluorogenic substrate, at 12.2 µM, hits give high values
Hit rate of the full screen: of about 370,000 compounds, about 3,100 (0.84%) were called active. The list comes from a sample in which actives are over-represented; it also holds close analogues and randomly drawn compounds.
Below, each of the compounds is paired with its reported inhibition value.
measuredQuantity: inhibition (%)

> print(dat)
                                   compound  measuredquantity  measurementunit  reportedvalue
1  C[C@]12c3[nH]c4ccc(Cl)cc4c3CCN1C(=O)[C@@H](CC(=O)NCCCn1ccnc1)C[C@@H]2C(=O)N1CCOCC1        inhibition                %           13.5
2  O=C(NCc1ccccc1)[C@H]1CCCN1C(=O)[C@H]1CCCN1C(=O)c1cc(F)cc(F)c1        inhibition                %           0.04
3  O=C(CSc1nnc(-c2cccc(Cl)c2)n1Cc1ccco1)Nc1ccc(OCc2ccccc2)cc1        inhibition                %           2.27
4  COc1ccc(C2(c3ccc(OC)cc3)NC(=O)N(CC(=O)Nc3cc(C)on3)C2=O)cc1        inhibition                %           0.49
5  C=C(C)C#CC(Cc1ccccc1)NCC1CC1 (stereo not drawn)        inhibition                %           0.45
6  COc1ccc2[nH]c3c(c2c1)CCN1C(=O)C(CC(=O)NCCc2ccccn2)C[C@H](C(=O)N2CCOCC2)[C@@]31C (stereo partly drawn)        inhibition                %           0.01
7  CC[C@]12c3[nH]c4ccc(Cl)cc4c3CCN1C(=O)[C@@H](CC(=O)NCCN1CCOCC1)C[C@@H]2C(=O)N1CCN(C(=O)C2CC2)CC1        inhibition                %           0.47
8  Nn1c(SCC(=O)N2c3ccccc3Sc3ccccc32)nnc1-c1n[nH]c2c1CCC2        inhibition                %            1.2
